# System: MCF-7
# protocol-description: IC50 using the MTT assay
# Format: cell-based
# study-conditions: 72 hours
endpoint-label: pIC50
In simple prose, pIC50 is minus the logarithm base ten of a concentration in moles per litre.

Incoming: Consider the substance shown here: BHALys[Lys]32[α-GILGVP-Glu-DTX]32[ε-t-PEG2300]32 [Example 17] What is its recorded pIC50?
Outgoing: 7.03

----------
# System: HCT-116
# protocol-description: IC50 using the MTT assay
# Assay type: cell-based
# study-conditions: 72 hours
# Experimental: The IC50 using the MTT assay [Wilson, Anne P. (2000). “Chapter 7: Cytotoxicity and viability”. In Masters, John R. W. Animal Cell Culture: A Practical Approach. Vol. 1 (3rd ed.). Oxford: Oxford University Press] was determined against various cancer cell lines after 72 hours.
endpoint-label: pIC50
Lab note: report pIC50 as minus log10 of the concentration in molar units, number only.

Incoming: Would you kindly share the measured pIC50 for BHALys[Lys]32[α-GILGVP-Glu-DTX]32[ε-t-PEG2300]32 [Example 17] ?
Outgoing: 6.67
